Values of Kd reported for Cyclin-G-associated kinase (Homo sapiens, UniProt O14976) appear below.
Form entry: value (nM) — number only.

[[record]]
structure_smiles = "CCOc1cc(N2CCC(O)CC2)ccc1Nc1ncc2c(n1)N(C1CCCC1)CCC(=O)N2C"
study_target = "Cyclin-G-associated kinase (Homo sapiens, UniProt O14976)"
experimental_endpoint = "Kd"
reading = 140


Let us examine a further case.
The recorded Kd with Cyclin-G-associated kinase (Homo sapiens, UniProt O14976) for "COc1cc(N2CCC(O)CC2)ccc1Nc1cc(Nc2ccccc2S(=O)(=O)C(C)C)c2cc[nH]c2n1" was 1100

###

biological target: Focal adhesion kinase 1 (Homo sapiens)
Sequence (Q05397 whole entry): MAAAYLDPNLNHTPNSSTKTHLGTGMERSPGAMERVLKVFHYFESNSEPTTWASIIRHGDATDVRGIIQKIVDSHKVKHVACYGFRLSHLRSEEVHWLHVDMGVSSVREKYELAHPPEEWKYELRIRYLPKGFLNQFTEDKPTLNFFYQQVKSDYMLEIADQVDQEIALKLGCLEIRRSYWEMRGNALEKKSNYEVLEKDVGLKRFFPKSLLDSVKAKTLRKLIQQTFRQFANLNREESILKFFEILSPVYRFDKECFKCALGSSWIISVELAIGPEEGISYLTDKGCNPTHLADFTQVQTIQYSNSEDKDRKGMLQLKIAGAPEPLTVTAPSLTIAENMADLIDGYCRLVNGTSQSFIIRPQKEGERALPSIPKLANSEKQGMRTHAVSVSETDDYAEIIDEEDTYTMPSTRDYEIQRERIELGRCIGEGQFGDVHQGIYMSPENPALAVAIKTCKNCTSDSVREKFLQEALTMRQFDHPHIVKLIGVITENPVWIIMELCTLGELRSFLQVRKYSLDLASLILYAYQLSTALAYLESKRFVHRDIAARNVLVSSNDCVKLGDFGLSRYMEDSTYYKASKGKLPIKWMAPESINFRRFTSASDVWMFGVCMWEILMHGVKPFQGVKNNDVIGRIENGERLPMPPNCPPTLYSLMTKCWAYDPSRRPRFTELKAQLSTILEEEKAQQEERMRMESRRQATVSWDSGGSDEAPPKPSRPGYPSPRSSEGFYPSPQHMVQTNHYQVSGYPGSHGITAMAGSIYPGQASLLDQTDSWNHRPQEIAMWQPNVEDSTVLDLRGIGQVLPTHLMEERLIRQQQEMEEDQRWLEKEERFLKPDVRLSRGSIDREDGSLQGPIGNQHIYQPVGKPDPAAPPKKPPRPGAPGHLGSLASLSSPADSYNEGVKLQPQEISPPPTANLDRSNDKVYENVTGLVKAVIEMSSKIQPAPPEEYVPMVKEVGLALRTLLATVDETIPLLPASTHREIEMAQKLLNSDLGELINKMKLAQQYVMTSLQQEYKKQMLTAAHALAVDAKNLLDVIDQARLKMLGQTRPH
experimental endpoint: pKd
// field semantics: pKd = negative decimal log of concentration (mol/L)

The recorded pKd with Focal adhesion kinase 1 (Homo sapiens) for "COc1cc(N2CCC(O)CC2)ccc1Nc1cc(Nc2ccccc2S(=O)(=O)C(C)C)c2cc[nH]c2n1" was 6.36

###

target: Insulin-like growth factor 1 receptor (Homo sapiens, UniProt P08069)
Sequence (P08069 31-736 limits assumed): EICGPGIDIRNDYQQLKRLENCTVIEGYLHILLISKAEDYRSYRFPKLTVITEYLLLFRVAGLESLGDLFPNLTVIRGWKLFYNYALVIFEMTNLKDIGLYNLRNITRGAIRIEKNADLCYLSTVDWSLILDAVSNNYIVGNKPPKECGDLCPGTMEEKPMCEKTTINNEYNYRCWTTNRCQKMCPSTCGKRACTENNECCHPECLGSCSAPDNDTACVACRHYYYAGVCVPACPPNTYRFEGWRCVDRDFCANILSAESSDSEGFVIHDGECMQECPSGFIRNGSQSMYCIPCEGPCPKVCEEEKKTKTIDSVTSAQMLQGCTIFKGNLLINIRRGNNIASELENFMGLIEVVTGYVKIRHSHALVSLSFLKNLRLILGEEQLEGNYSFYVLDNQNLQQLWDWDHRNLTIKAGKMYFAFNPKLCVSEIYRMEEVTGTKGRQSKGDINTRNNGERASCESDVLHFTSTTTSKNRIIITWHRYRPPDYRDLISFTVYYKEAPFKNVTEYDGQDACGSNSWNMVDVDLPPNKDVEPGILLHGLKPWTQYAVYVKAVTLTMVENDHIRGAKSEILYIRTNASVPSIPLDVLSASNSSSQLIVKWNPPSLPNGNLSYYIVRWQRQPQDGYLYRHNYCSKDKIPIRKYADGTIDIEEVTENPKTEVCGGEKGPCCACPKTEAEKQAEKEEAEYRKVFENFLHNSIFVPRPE
Sequence (P08069 741-1367 limits assumed): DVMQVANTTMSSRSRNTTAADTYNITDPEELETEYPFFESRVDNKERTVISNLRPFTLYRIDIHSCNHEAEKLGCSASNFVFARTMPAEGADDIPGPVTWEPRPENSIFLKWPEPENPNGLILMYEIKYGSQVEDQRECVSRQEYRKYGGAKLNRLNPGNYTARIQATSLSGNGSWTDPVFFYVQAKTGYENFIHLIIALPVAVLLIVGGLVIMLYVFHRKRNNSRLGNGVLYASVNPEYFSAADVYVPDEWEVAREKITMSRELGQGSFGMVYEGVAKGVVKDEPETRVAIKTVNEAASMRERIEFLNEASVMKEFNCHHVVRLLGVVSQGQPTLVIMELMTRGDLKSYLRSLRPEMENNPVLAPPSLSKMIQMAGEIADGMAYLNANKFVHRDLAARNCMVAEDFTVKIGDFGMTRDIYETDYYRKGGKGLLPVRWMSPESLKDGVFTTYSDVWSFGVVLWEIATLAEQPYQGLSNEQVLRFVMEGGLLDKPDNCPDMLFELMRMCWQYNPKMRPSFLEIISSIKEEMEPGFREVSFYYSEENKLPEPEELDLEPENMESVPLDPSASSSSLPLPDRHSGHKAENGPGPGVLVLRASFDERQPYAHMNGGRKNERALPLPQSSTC
experimental endpoint: pKd
// field semantics: pKd = negative decimal log of concentration (mol/L)

Entry "COc1cc(N2CCC(O)CC2)ccc1Nc1cc(Nc2ccccc2S(=O)(=O)C(C)C)c2cc[nH]c2n1" — recorded pKd = 6.12

###

target: Activated CDC42 kinase 1 (Homo sapiens, UniProt Q07912); assay: Binding affinity to TNK2 (unknown origin) assessed as dissociation constant by Ambit kinase binding assay
Sequence (Q07912 whole entry): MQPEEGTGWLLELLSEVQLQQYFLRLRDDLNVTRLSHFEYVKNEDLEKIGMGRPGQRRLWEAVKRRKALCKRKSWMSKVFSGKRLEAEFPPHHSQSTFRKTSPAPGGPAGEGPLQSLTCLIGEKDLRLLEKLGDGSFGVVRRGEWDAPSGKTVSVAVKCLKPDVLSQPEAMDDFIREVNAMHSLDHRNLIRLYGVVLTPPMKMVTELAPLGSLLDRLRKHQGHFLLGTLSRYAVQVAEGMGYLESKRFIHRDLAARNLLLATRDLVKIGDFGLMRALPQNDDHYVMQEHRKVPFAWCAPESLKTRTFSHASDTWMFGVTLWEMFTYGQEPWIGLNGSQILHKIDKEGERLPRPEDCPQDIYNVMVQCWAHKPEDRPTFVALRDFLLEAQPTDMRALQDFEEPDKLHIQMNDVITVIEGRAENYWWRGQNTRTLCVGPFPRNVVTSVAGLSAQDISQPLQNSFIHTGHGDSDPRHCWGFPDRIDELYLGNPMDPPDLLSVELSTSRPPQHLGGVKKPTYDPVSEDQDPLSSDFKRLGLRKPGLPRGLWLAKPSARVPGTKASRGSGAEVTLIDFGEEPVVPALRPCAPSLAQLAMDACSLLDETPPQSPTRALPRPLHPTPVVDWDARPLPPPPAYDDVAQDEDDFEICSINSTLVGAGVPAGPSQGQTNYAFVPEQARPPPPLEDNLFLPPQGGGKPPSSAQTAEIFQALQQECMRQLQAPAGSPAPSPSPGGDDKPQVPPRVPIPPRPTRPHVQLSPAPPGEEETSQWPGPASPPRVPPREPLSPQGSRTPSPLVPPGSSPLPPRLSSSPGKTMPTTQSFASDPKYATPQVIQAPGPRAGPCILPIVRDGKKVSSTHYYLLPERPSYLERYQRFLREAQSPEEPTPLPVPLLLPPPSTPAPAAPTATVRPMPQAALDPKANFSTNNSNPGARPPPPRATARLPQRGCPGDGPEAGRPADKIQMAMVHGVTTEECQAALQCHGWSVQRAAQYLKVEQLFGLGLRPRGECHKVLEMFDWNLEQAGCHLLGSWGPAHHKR
experimental endpoint: pKd
// field semantics: pKd = negative decimal log of concentration (mol/L)

Entry "COc1cc(N2CCC(O)CC2)ccc1Nc1cc(Nc2ccccc2S(=O)(=O)C(C)C)c2cc[nH]c2n1" — recorded pKd = 5.51

###

target: Serine/threonine-protein kinase PLK3 (Homo sapiens)
Sequence (Q9H4B4 whole entry): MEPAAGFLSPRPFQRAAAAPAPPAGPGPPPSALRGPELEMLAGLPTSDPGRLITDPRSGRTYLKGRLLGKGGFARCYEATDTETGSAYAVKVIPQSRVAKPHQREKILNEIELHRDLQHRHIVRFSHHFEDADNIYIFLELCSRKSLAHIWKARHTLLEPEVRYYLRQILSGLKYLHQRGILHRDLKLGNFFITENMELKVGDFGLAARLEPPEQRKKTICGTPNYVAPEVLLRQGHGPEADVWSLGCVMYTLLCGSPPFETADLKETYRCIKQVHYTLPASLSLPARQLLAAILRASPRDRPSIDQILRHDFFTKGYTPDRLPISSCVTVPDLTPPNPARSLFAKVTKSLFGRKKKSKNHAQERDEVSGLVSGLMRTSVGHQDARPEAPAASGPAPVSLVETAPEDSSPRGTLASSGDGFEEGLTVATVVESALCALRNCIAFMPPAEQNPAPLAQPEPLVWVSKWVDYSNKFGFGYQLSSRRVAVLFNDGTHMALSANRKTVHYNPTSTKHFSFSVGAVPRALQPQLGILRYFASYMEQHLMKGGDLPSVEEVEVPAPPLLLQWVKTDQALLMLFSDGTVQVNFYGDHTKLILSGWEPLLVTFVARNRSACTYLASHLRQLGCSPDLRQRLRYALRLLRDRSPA
experimental endpoint: pKd
// field semantics: pKd = negative decimal log of concentration (mol/L)

The recorded pKd with Serine/threonine-protein kinase PLK3 (Homo sapiens) for "CCOc1cc(N2CCC(O)CC2)ccc1Nc1ncc2c(n1)N(C1CCCC1)CCC(=O)N2C" was 5.80

###

molecular target: Serine/threonine-protein kinase PLK1 (Homo sapiens, UniProt P53350)
Sequence (P53350 whole entry): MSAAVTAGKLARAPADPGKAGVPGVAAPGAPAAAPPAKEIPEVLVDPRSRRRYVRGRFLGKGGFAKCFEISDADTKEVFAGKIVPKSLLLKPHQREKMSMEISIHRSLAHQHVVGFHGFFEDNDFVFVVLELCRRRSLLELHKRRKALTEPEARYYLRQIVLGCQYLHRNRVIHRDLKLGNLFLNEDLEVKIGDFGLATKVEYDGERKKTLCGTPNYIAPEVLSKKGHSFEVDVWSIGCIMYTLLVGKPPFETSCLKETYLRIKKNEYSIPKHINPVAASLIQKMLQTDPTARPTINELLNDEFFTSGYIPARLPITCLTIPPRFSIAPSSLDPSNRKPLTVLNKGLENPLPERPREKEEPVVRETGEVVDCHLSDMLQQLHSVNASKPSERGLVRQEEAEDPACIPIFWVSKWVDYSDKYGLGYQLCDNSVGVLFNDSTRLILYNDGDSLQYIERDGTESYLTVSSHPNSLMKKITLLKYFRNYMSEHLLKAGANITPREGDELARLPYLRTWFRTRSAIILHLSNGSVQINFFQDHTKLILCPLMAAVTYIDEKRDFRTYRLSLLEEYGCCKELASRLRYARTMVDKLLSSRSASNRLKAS
experimental endpoint: Kd

Entry "CCOc1cc(N2CCC(O)CC2)ccc1Nc1ncc2c(n1)N(C1CCCC1)CCC(=O)N2C" — recorded Kd = 61 nM
